Reference source: the NIST ThermoML archive (doi:10.1021/acs.jced.5b00444)

MEASUREMENT PROTOCOL: molar enthalpy of vaporization or sublimation
MEASUREMENT PARAMETERS: 298 K; Liquid; Chromatographic retention time
Recorded molar enthalpy by entry
PROPERTY MEASURED: molar enthalpy (kcal/mol)

>>> observed_value("CCCCCCCCCCCCCCCCCC(=O)OCC [ethyl octadecanoate]")
26.1
>>> observed_value("CCCCCCCCCCCCCCCCCCCCCC [docosane]")
26.3
>>> observed_value("CCOC(=O)c1ccccc1C(=O)OCC [diethyl phthalate]")
21.2
>>> observed_value("CCCCCCCCCCCCCCCC(=O)OC [methyl hexadecanoate]")
24.3
>>> observed_value("CCCCCCCCCCCCCCCCCCCCCCCCCC [hexacosane]")
29.2
>>> observed_value("CCCCC(CC)COC(=O)c1ccccc1C(=O)OCC(CC)CCCC (configuration not stated) [bis(2-ethylhexyl) 1,2-benzenedicarboxylate]")
27.9
>>> observed_value("COC(=O)c1ccccc1C(=O)OC [dimethyl 1,2-benzenedicarboxylate]")
20.1
>>> observed_value("CCCCCCCCCCCCCCCCCCCC [eicosane]")
24.8
>>> observed_value("CCCCOC(=O)c1ccccc1C(=O)OCCCC [dibutyl phthalate]")
23.7
>>> observed_value("CCCCCCCCCCCCCCCCCC(=O)OC [methyl octadecanoate]")
25.8
>>> observed_value("CCCCCCCCCCCCCCCCCCCCCCCCC [pentacosane]")
28.5
>>> observed_value("CCCCCCCCCCCCCCCCCCCCCCCC [tetracosane]")
27.7
>>> observed_value("CCCCCCCCCCCCCCCCCCCCCCCCCCCC [octacosane]")
30.7
>>> observed_value("CCCCCCCCCCCCCCCCCCCC(=O)OC [methyl eicosanoate]")
26.6
>>> observed_value("CCCCCCCCOC(=O)c1ccccc1C(=O)OCCCCCCCC [dioctyl 1,2-benzenedicarboxylate]")
29.3
>>> observed_value("CCCCOC(=O)c1ccccc1C(=O)OCc1ccccc1 [benzyl butyl 1,2-benzenedioate]")
26.2
>>> observed_value("CCCCCCCCCCCCCCCCCCCCC(=O)OC [methyl heneicosanoate]")
27.8
